As shown below, each of these molecules has a reported pKi value.
target: UniProt P05089; assay: Arginase inhibition, QuantiChrom colorimetric urea assay, IC50 converted to Ki; assay type: biochemical; conditions: Table 3; pH 7.5; read-out: human Arginase I pH 7.5, Ki assigned value
pKi: −log10 of the molar value.
Quantity name: pKi

1) NC(CCCCB(O)O)(CCCN1CCC(O)(Cc2ccccc2)CC1)C(=O)O (stereo not drawn) :: > 8.00
2) NC(CCCCB(O)O)(CCCN1CCCC(c2ccccc2)C1)C(=O)O (stereo not drawn) :: > 8.00
3) CN(CCCC(N)(CCCCB(O)O)C(=O)O)Cc1ccc2ccccc2c1 (stereo not drawn) :: > 8.00
4) NC(CCCCB(O)O)(CCCN1CCC(NC(=O)c2ccccc2)CC1)C(=O)O (stereo not drawn) :: > 8.00
5) NC(CCCCB(O)O)(CCCN1CCC(NS(=O)(=O)c2ccc(Cl)c(Cl)c2)C1)C(=O)O (stereo not drawn) :: > 8.00
6) NC(CCCCB(O)O)(CCCN1CCc2ccccc2C1)C(=O)O (stereo not drawn) :: > 8.00
7) NC(CCCCB(O)O)(CCCCN1CCN(c2ccc(Cl)c(Cl)c2)CC1)C(=O)O (stereo not drawn) :: 7.30 to 7.96
8) CS(=O)(=O)c1ccc(CN2CCN(CCCC(N)(CCCCB(O)O)C(=O)O)CC2)cc1 (stereo not drawn) :: > 8.00
9) NC(CCCCB(O)O)(CCCN1CCCC1c1ccccc1C(F)(F)F)C(=O)O (stereo not drawn) :: 7.30 to 7.96

----------
As shown below, each of these compounds has a reported Ki value.
Target: human arginase I (Homo sapiens, UniProt P05089)
Sequence (P05089 1-322): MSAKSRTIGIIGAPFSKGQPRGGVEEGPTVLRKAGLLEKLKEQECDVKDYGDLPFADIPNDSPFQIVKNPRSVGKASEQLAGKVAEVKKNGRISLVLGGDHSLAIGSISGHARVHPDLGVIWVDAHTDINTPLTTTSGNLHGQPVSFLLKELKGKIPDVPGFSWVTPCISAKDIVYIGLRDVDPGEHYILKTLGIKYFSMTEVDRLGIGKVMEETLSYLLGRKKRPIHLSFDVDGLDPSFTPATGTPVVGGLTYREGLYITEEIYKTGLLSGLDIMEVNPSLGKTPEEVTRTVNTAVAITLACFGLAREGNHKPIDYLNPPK
Assay: Arginase inhibition, QuantiChrom colorimetric urea assay, IC50 converted to Ki
Type: biochemical
Settings: Table 3; pH 7.5; read-out: human Arginase I pH 7.5, Ki assigned value
Quantity name: Ki

1. NC(CCCCB(O)O)(CCCn1cnc2ccccc21)C(=O)O (stereo not shown) :: 251 to 400 nM
2. NC(CCCCB(O)O)(CCCN1CCOCC1)C(=O)O (stereo not shown) :: < 10 nM
3. NC(CCCCB(O)O)(CCCCN1CCc2ccccc2C1)C(=O)O (stereo not shown) :: 11 to 50 nM
4. COCCN(C)CCCC(N)(CCCCB(O)O)C(=O)O (stereo not shown) :: 11 to 50 nM
5. NC(CCCCB(O)O)(CCCN1CCC1)C(=O)O (stereo not shown) :: < 10 nM
6. NC(CCCCB(O)O)(CCCN1CCSCC1)C(=O)O (stereo not shown) :: 11 to 50 nM
7. NC(CCCCB(O)O)(CCC1CCCCN1Cc1ccc(F)c(F)c1)C(=O)O (stereo not shown) :: 11 to 50 nM
8. NC(CCCCB(O)O)(CCCN1CCN(CCc2ccccc2)CC1)C(=O)O (stereo not shown) :: < 10 nM
9. CN(CCCC(N)(CCCCB(O)O)C(=O)O)C1CCCCC1 (stereo not shown) :: 11 to 50 nM
10. NC(CCCCB(O)O)(CCCN1CCC2(CC1)C(=O)NCN2c1ccccc1)C(=O)O (stereo not shown) :: < 10 nM
